- Measured on: Chromo domain-containing protein 1 (Saccharomyces cerevisiae (strain ATCC 204508 / S288c) (Baker's yeast)) (UniProt P32657)
- Sequence (P32657 whole entry, the tested form may be a part): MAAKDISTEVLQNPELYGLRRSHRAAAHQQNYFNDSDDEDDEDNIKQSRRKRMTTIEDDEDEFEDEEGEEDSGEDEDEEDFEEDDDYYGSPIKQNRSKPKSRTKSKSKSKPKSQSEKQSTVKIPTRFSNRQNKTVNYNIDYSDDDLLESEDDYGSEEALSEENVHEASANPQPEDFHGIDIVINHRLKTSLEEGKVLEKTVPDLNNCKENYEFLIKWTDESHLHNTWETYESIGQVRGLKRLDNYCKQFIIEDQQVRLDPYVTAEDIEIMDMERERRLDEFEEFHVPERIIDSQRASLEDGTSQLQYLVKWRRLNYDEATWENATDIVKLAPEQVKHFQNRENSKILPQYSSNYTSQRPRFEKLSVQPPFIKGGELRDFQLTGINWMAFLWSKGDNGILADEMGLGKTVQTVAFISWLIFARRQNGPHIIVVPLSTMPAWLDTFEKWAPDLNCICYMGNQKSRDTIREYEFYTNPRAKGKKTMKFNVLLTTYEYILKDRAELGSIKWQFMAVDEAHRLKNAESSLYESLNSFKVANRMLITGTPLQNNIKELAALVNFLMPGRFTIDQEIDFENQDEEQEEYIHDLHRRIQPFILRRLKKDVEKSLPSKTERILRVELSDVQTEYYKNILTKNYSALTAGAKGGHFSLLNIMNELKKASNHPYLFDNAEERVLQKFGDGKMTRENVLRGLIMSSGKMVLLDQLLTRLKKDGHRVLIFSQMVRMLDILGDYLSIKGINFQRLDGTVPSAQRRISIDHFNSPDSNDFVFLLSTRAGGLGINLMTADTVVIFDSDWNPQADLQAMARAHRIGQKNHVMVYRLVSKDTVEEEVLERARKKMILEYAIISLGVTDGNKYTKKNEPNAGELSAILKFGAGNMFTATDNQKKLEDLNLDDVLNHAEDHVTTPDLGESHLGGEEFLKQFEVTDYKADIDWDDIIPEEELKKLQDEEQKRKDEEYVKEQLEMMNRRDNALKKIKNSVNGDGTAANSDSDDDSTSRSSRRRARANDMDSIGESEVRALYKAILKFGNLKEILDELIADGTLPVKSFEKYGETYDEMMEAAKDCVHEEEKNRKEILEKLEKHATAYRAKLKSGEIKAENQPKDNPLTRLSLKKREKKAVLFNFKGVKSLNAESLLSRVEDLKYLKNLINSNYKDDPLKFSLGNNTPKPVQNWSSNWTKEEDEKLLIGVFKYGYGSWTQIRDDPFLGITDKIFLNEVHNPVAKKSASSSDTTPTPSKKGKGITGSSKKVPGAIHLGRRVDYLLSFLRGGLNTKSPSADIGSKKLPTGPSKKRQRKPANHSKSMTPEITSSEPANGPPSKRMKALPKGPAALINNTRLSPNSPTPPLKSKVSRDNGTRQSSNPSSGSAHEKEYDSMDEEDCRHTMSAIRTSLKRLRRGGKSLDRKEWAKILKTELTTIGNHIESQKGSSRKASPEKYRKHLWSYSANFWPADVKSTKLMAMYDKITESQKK
- Procedure text: ScCHD-1 Enzyme Inhibition Assay; further: in the data most compounds retested in dose-response had high values
- Format: functional
- Parameters: scale not given: direction of the effect not stated beside the values
- Condition set: 30 µM
Parameter: Percent Effect. Scope: all listed entries.

| Compound | Percent Effect (%) |
| --- | --- |
| CCC(C)NC(=O)Nc1ccc(CN2CCOC2=O)cc1 (configuration not stated) | -1.28 |
| c1cnn(CC2CN(CC3CCCC3)CCO2)c1 (configuration not stated) | -17.2 |
| OCCOc1nc(-c2ccccc2Cl)no1 | -5.57 |
| O=C(Cn1ccc2c(Cl)cccc21)N[C@@H](C(=O)O)c1ccccc1 | -4.5 |
| CNS(=O)(=O)c1ccc(CNC(=O)NCC2CCCO2)cc1 (configuration not stated) | -17.3 |
| CC(C#N)CSc1ccccc1NCC(=O)NCc1ccccc1 (configuration not stated) | -1.42 |
| Cc1cc(C(=O)N2CCCC(n3ccnc3C)C2)c(C)s1 (configuration not stated) | -2.55 |
| Cc1nnc(N2CC[C@H](OCC3CC3)[C@@H](Cc3ccccc3)C2)s1 | -3.2 |
| N#Cc1ccc(CN2CCC(c3ccnn3CCO)CC2)cc1 | -1.9 |
| O=C(c1cscn1)N1CCC2(CCN(Cc3cccs3)CC2)C1 | 0.482 |
| COCC1CC2(CCN(C(=O)c3ccc(OC)c(Cl)c3)CC2)CO1 (configuration not stated) | -9.46 |
| Cc1cc(F)ccc1CNCCn1cccn1 | -0.034 |

###

- Measured on: AMP-activated protein kinase, AMPK (Homo sapiens) (UniProt P54646+O43741+P54619+Q9UGJ0+Q9Y478+Q13131+Q9UGI9)
- Procedure text: AMP-dependent Kinase enzyme assay. An in vitro enzyme assay that detects ADP turnover that is directly proportional to AMPK activity. This uses naive AMPK that is activated during the assay with MK-8722
- Type: functional
- Design: scale not given: direction of the effect not stated beside the values
- Condition set: 30 µM

| Compound | Percent Effect, % |
| --- | --- |
| N#Cc1ccc(C(=O)N2CC[C@H]3[C@@H]2CCC(=O)N3c2ccccc2)cc1 | 6.69 |
| CSCC(=O)N1CCCC1c1noc(C2CC2)n1 (stereo unspecified) | -6.47 |
| COCC(=O)N1CCC[C@]2(C(=O)N(C)C)CN(c3ccccn3)C[C@@H]2C1 | -3.72 |
| Cc1ccc(CNC(c2ccccc2)c2nccn2C)cc1C (stereo unspecified) | -5.59 |
| CCc1nc(C(=O)N2CCN(C)CC2C)nn1-c1ccccc1Cl (stereo unspecified) | 15.7 |
| CS(=O)(=O)N1C[C@@H]2CC[C@H](C1)N(Cc1cscn1)C2=O | -5.85 |
| Cc1ccoc1C(=O)N1C[C@@H]2[C@@H](C1)OCC(=O)N2Cc1cccnc1 | -0.37 |
| CC(=O)N1CCCN(C(=O)c2csc(-c3ccc(C)cc3C)n2)CC1 | -3.68 |
| CN(C(=O)Cc1ccc(NC(=O)NC2CCC2)cc1)c1ccccc1 | -0.53 |
| COc1cc(C(=O)NC(CC(=O)O)c2cccs2)cc(Cl)c1OC (stereo unspecified) | 6.71 |
| O=C1OC2(CCNCC2)CN1CC(=O)N1CCCC1c1ccco1 (stereo unspecified) | 1.69 |

###

- Measured on: Proteasome subunit beta (Trypanosoma cruzi) (UniProt O96673)
- Sequence (O96673 as listed by the source): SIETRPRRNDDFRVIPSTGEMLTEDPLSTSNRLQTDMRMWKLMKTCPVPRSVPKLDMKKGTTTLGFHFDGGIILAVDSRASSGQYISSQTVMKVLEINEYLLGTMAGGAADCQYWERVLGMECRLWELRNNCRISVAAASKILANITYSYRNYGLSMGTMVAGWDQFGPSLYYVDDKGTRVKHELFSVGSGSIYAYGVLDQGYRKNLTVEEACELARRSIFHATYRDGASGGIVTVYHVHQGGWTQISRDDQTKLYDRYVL
- Procedure text: Trypanosoma cruzi proteasome chymotrypsin-like activity (TcProtChymo) assay. Further: in the data most compounds retested in dose-response had high values.
- Assay type: functional
- Design: scale not given: direction of the effect not stated beside the values
- Condition set: 9.37 µM
Parameter: Percent Effect. Scope: all listed entries.

| Compound | Percent Effect, % |
| --- | --- |
| Cc1nccn1C1CCCN(C(=O)c2ccc(N(C)C)nc2)C1 (centres undefined) | 7.36 |
| CNS(=O)(=O)c1ccc(C(=O)NC2CCOc3ccccc32)o1 (centres undefined) | 11.8 |
| CCN1CCN(C(=O)c2ccn(C)c(=O)c2)CC1 | 11.8 |
| CCN1CCN(c2nc(C(C)C)nc3c(C)nn(CC)c23)CC1 | -0.832 |
| Cc1cccnc1CNc1cc(N2CCCC2CO)ncn1 (centres undefined) | 8.11 |
| Cc1noc(C2CCC3(CCN(C(=O)C4=CCCCC4)CC3)O2)n1 (centres undefined) | 8.67 |
| CCc1nc(CN(C(C)=O)C2CCN(CCc3cnn(C)c3)C2)no1 (centres undefined) | 0.901 |
| Cc1ccc(C)c(OC2CCN(C(=O)c3ccc(C)[nH]c3=O)CC2)c1 | 10.9 |
| O=C(NCc1ccccn1)[C@@H]1COC[C@H]2CN(C3CCOCC3)C[C@H]21 | 12.7 |
| CC(C)NC(=O)[C@@H]1C[C@H](N)CN1C(=O)c1cc2ccccc2[nH]c1=O | 12.3 |
| COC(=O)CCc1c(C)nn(-c2nc(C)cc(=O)[nH]2)c1C | 4.87 |
| CC(=O)Nc1nc(C2CCN(CC(N)=O)CC2)cs1 | -3.9 |
| Cc1ccc(OCCC(=O)NC2CCc3nc(C)cn3C2)cc1 (centres undefined) | 14.7 |
| CN1CC(=O)N(c2cccnc2)CC12CCN(C(=O)C1CCCCC1)C2 (centres undefined) | 12.3 |
| COc1ccc(C2CCCN2S(=O)(=O)N(C)CC(C)C)cc1 (centres undefined) | 5.61 |
| CS(=O)(=O)NCc1cn2c(n1)CN(C(=O)c1ccc[nH]1)CC2 | 5.2 |
| Cc1nccn1CC1CCCN1S(=O)(=O)Cc1ccon1 (centres undefined) | 14 |
| N#Cc1ncn(CC(=O)Nc2cc(Cl)ccc2F)n1 | 1.8 |
| CCOc1ccccc1C(CC(=O)Nc1ccc(C)cn1)NC(C)=O (centres undefined) | 4.34 |
| O=C(NCCc1ccccn1)NC1CCN(c2ncccn2)CC1 | 12.9 |
| CCN(CC)C(=O)c1ccc(-c2ccsc2)nc1C | 25.3 |
| CCC(=O)N1CCC(c2nnc(Cn3cncn3)n2C2CC2)CC1 | 17.7 |
| COc1ccccc1OCc1cc(C(=O)N2CCN[C@H](C)C2)n[nH]1 | 27.4 |
| CC(C)NC(=O)N1CCN(S(=O)(=O)C2CC2)CC2(CNC(=O)C2)C1 (centres undefined) | 7.66 |

###

- Measured on: Proteasome subunit beta (Trypanosoma cruzi)
- Procedure text: Trypanosoma cruzi proteasome chymotrypsin-like activity (TcProtChymo) assay. Further: in the data most compounds retested in dose-response had high values.
- Assay type: functional
- Design: scale not given: direction of the effect not stated beside the values
- Condition set: 9.37 µM
Classify as follows. Reported Percent Effect greater than or equal to 10%: rule met. Reported Percent Effect below: rule not met.

| Compound | Qualitative label |
| --- | --- |
| COCCN1CCN(CCS(=O)(=O)C(F)(F)F)CC1C (stereo unspecified) | rule not met |
| CN(C)c1ccc(CCNC(=O)C2CCC(=O)N(C3CCCC3)C2)cc1 (stereo unspecified) | rule met |
| O=C(c1ccc(O)c(Cl)c1)N1CCC(c2n[nH]c(C3CC3)n2)CC1 | rule not met |
| c1ccc(-c2nc(CN3CCCC(Cn4cncn4)C3)co2)cc1 (stereo unspecified) | rule met |
| CC(=O)N1CCCN(C(=O)c2cnc3n[nH]c(C)c3c2)CC1 | rule not met |
| CC1CN=C(N2CCN(C(=O)Nc3nc(-c4ccccc4)ns3)CC2)S1 (stereo unspecified) | rule not met |

###

- Measured on: Tyrosyl-tRNA synthetase, putative (Trypanosoma cruzi (strain CL Brener)) (UniProt Q4DSP6)
- Sequence (Q4DSP6 as listed by the source): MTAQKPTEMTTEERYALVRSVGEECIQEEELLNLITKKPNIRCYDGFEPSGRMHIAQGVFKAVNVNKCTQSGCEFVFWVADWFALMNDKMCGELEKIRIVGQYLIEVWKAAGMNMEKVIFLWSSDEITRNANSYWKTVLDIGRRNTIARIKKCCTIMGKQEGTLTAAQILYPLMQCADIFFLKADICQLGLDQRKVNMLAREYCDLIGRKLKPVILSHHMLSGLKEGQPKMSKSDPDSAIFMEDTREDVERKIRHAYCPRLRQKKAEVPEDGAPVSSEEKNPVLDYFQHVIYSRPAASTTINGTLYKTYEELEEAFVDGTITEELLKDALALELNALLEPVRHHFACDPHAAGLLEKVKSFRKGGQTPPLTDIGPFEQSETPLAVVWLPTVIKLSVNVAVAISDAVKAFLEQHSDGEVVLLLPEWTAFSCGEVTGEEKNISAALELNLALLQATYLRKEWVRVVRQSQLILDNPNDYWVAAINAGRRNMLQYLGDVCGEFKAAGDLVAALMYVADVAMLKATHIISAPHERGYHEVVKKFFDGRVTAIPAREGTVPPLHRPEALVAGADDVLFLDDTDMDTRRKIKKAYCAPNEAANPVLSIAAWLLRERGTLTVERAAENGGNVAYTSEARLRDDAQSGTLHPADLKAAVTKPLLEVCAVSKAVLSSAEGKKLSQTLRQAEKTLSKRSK
- Procedure text: Trypanosoma cruzi tyrosyl tRNA synthetase (TcYRS) SOP
- Type: functional
- Design: scale not given: direction of the effect not stated beside the values
- Condition set: 30 µM
Parameter: Percent Effect. Scope: all listed entries.

| Compound | Measured on | Percent Effect / % |
| --- | --- | --- |
| c1cnn(Cc2nnc(C3CCN(C4CCOCC4)CC3)n2C2CC2)c1 | Tyrosyl-tRNA synthetase, putative (Trypanosoma cruzi (strain CL Brener)) (UniProt Q4DSP6) | 16.1 |
| O=C(C1CCN(c2snc3ccccc23)CC1)N1CCCCCC1 | Tyrosyl-tRNA synthetase, putative (Trypanosoma cruzi (strain CL Brener)) (UniProt Q4DSP6) | 7.59 |
| FC(F)(F)C1CCc2nnc(CNCc3ccsc3)n2C1 (stereo unspecified) | Tyrosyl-tRNA synthetase, putative (Trypanosoma cruzi (strain CL Brener)) (UniProt Q4DSP6) | 16.1 |
| O=C(NCCN1CCOCC1)c1ccc(-n2ccc3ccccc32)s1 | Tyrosyl-tRNA synthetase, putative (Trypanosoma cruzi (strain CL Brener)) (UniProt Q4DSP6) | 11.5 |
| CSCc1cccc(S(=O)(=O)N2CCSCC2)c1 | Tyrosyl-tRNA synthetase, putative (Trypanosoma cruzi (strain CL Brener)) (UniProt Q4DSP6) | -2.56 |
| N#Cc1cccc(S(=O)(=O)N2CCCCC2CCN2CCCC2=O)c1 (stereo unspecified) | Tyrosyl-tRNA synthetase, putative (Trypanosoma cruzi (strain CL Brener)) (UniProt Q4DSP6) | 11.1 |
